Overview of reported AUC(0-inf) across a group of compounds:
- PROTOCOL: in vivo
- CONDITION_SUMMARY: male, CD-1, mouse, iv, 5 mg/kg
Could you give me the number in µM·h? Just the number is fine.

1. CC(=O)NCc1ccc(Oc2ccc(S(=O)(=O)CC3CS3)cc2)cc1 (centres unmarked) = 7.28

Turning now to a further record.
Determine its reported AUC(0-inf): NCc1nc(-c2ccc(Oc3ccc(S(=O)(=O)CC4CS4)cc3)cc2)no1 (centres unmarked) 13.1

###

- PROTOCOL: in vivo
- CONDITION_SUMMARY: male, CD-1, mouse, iv, 5 mg/kg
EXPERIMENTAL_ENDPOINT: Vd

1. CC(=O)NCc1ccc(Oc2ccc(S(=O)(=O)CC3CS3)cc2)cc1 (centres unmarked) = 0.329 L/kg

Turning now to a further record.
Determine its reported Vd: NCc1nc(-c2ccc(Oc3ccc(S(=O)(=O)CC4CS4)cc3)cc2)no1 (centres unmarked) 0.0213 L/kg
